Assay: CTO concentration (as CAI) in brain tissue after oral dosing
Type: in vivo, mice
Settings: mouse, CTO 342 mg/kg orally in PEG400, mice, eight hours after treatment, read-out: CAI levels in brain tissue

| Compound structure | concentration at 8 h [ng/g] |
| --- | --- |
| NC(=O)c1nnn(Cc2cc(Cl)c(C(=O)c3ccc(Cl)cc3)c(Cl)c2)c1N | 11000 |
